# Tested on: HeLa MZ
# assay: LBPA endosome anti-LBPA integrated intensity (sum per cell), Z-score; higher = more LBPA staining
# conditions: compound concentration in added solution (µM; 5 µl added to 20 µl cells): 10; 18 h
Mark criterion not met for LBPA endosome anti-LBPA integrated intensity (z-score) values under 0.3, and criterion met for everything at or above.

Reference set, count: 3
compound=COc1ccc(-c2cc(=O)c3c(O)cc(O[C@@H]4O[C@H](CO[C@@H]5O[C@@H](C)[C@H](O)[C@@H](O)[C@H]5O)[C@@H](O)[C@H](O)[C@H]4O)cc3o2)cc1O class_label="criterion not met"
compound=Clc1ccccc1C(c1ccccc1)(c1ccccc1)n1ccnc1 class_label="criterion met"
compound="CC(=O)O[C@]1(C(C)=O)CC[C@H]2[C@@H]3C=C(C)C4=CC(=O)CC[C@]4(C)[C@H]3CC[C@@]21C [Megestrol acetate]" class_label="criterion not met"

Q: Does COc1cc(NS(=O)(=O)c2ccc(N)cc2)nc(OC)n1 have a reported LBPA endosome anti-LBPA integrated intensity (z-score) of at least 0.3?
Result: criterion not met

Q: # check: LBPA endosome anti-LBPA integrated intensity (z-score) of CC(C)[N+](C)(CCOC(=O)C1c2ccccc2Oc2ccccc21)C(C)C [Propantheline bromide] is greater than or equal to 0.3
Result: criterion met
